- ASSAY PROCEDURE: Displacement of [3H]Prazosin from adrenergic alpha1 receptor in pig cerebral cortex homogenates
- Assay type: tissue-based, Sus scrofa
pKi: −log10 of the molar value.
Binary classification by pKi, with 8 as an inclusive lower bound for TRUE; all other cases are FALSE.

Reported pKi reaches at least 8 for Cc1ccc(C)c(C(=O)NCCCCN2CCN(c3cc(C)ccc3C)CC2)c1 ? FALSE

Answer whether pKi of Cc1ccc(C)c(N2CCN(CCCCNC(=O)c3cc4ccccc4s3)CC2)c1 is greater than or equal to 8. FALSE

Could you verify whether the entry O=C(NCCCCN1CCN(c2cc3ccc2CCc2ccc(cc2)CC3)CC1)c1cc2ccc1CCc1ccc(cc1)CC2 shows pKi of no less than 8? FALSE

Form field: pKi at least 8? Entry: O=C(CCCN1CCC(O)(c2cc3ccc2CCc2ccc(cc2)CC3)CC1)c1cc2ccc1CCc1ccc(cc1)CC2 FALSE

Does pKi meet or surpass 8 for O=C(NCCCCN1CCN(c2cc3ccc2CCc2ccc(cc2)CC3)CC1)c1cc2ccccc2s1 ? FALSE

Form field: pKi at least 8? Entry: O=C(CCCN1CCC(O)(c2cc3ccc2CCc2ccc(cc2)CC3)CC1)c1ccc(F)cc1 TRUE

Could you please find out whether O=C(CCCN1CCN(c2ccc(Cl)cc2)CC1)c1cc2ccc1CCc1ccc(cc1)CC2 has pKi that meets 8 or exceeds it? FALSE

Record COc1ccccc1N1CCN(CCCCNC(=O)c2cc3ccc2CCc2ccc(cc2)CC3)CC1 ; criterion: pKi no lower than 8. Met? TRUE

###

- EXPERIMENTAL SYSTEM: 5-hydroxytryptamine receptor 2A (Sus scrofa)
- Sequence (P50129 whole entry): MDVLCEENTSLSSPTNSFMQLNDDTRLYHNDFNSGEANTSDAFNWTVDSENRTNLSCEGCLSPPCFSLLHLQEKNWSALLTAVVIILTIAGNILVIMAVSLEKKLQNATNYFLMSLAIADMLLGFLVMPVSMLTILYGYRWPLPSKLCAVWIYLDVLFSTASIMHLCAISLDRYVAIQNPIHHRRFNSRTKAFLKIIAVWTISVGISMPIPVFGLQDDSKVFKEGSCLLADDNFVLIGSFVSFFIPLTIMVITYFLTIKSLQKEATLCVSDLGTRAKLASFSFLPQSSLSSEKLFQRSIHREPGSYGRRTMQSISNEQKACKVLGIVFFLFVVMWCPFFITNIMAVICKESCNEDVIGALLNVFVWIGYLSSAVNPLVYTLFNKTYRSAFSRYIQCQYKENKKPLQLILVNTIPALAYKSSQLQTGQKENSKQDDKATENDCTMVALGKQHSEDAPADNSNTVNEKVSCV
pKi: −log10 of the molar value.
Classify by measured pKi: t if it is equal to or exceeds 6, f if it is smaller.

Worked set:
COc1ccccc1N1CCN(CCCCNC(=O)c2cc3ccccc3s2)CC1
t
O=C(CCCN1CCC(O)(c2ccc(Cl)cc2)CC1)c1cc2ccc1CCc1ccc(cc1)CC2
f
Cc1ccc(C)c(C2(O)CCN(CCCC(=O)c3ccc(F)cc3)CC2)c1
t
O=C(CCCN1CCC(O)(c2cc3ccc2CCc2ccc(cc2)CC3)CC1)c1ccc(F)cc1
t
Cc1ccc(C)c(C(=O)CCCN2CCC(O)(c3cc(C)ccc3C)CC2)c1
f

Quick check, pKi >= 6? O=C(CCCN1CCN(c2ccc(Cl)cc2)CC1)c1ccc(F)cc1 t

###

- EXPERIMENTAL SYSTEM: UniProtKB P35462
- Sequence (P35462 whole entry): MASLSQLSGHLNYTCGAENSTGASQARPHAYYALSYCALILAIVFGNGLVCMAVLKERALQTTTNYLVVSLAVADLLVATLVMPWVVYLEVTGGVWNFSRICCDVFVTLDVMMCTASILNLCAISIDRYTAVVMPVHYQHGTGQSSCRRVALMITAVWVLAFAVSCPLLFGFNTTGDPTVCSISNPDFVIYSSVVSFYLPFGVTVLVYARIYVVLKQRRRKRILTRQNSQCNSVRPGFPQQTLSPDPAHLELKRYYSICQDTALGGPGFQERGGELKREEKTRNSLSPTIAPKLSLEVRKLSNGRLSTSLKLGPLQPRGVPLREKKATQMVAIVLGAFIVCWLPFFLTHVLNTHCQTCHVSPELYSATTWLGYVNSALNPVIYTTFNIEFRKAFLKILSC
Output yes for records whose Ki is lower than 20 nM, no for records at or above 20 nM.

Look over these answered cases.
Cc1ccc(C)c(C2(O)CCN(CCCC(=O)c3ccc(F)cc3)CC2)c1
no
O=C(CCCN1CCC(O)(c2cc3ccc2CCc2ccc(cc2)CC3)CC1)c1ccc(F)cc1
no
Cc1ccc(C)c(N2CCN(CCCCNC(=O)c3cc4ccccc4s3)CC2)c1
yes

Please state whether Ki is below 20 nM for Cc1ccc(C)c(C(=O)CCCN2CCC(O)(c3cc(C)ccc3C)CC2)c1 no

Take the compound Cc1ccc(C)c(C(=O)CCCN2CCC(O)(c3ccc(Cl)cc3)CC2)c1 and say whether its Ki is less than 20 nM. no

###

# key: entry, value: Ki
- EXPERIMENTAL SYSTEM: D(1A) dopamine receptor (Sus scrofa, UniProt P50130)
- Sequence (P50130 whole entry): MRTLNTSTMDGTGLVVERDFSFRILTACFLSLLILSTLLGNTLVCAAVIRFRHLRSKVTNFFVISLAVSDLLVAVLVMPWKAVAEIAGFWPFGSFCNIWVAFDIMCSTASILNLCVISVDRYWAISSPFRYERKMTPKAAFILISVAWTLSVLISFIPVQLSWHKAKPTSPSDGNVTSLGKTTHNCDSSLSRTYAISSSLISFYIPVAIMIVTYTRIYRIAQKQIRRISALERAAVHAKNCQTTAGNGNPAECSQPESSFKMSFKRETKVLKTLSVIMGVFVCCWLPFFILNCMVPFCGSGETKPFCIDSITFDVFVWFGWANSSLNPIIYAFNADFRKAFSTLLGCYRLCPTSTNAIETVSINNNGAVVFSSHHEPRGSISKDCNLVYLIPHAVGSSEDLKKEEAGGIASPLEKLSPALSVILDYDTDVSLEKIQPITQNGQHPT
- ASSAY PROCEDURE: Displacement of [3H]SCH23390 from dopamine D1 receptor in pig striatal membranes
Please reply with the bare figure in nM and do not write the unit itself.

As a guide, the following entries are already answered.
Cc1ccc(C)c(N2CCN(CCCC(=O)c3ccc(F)cc3)CC2)c1
210
O=C(NCCCCN1CCN(c2cc3ccc2CCc2ccc(cc2)CC3)CC1)c1cc2ccc1CCc1ccc(cc1)CC2
7800
Cc1ccc(C)c(C(=O)CCCN2CCC(O)(c3cc(C)ccc3C)CC2)c1
590
O=C(CCCN1CCC(O)(c2cc3ccc2CCc2ccc(cc2)CC3)CC1)c1cc2ccc1CCc1ccc(cc1)CC2
4900

API: the following record is the query input.
// lookup Ki | system=D(1A) dopamine receptor (Sus scrofa, UniProt P50130) | key= O=C(CCCN1CCN(c2cc3ccc2CCc2ccc(cc2)CC3)CC1)c1ccc(F)cc1 590

Values were extracted from ChEMBL document CHEMBL1255217.
